EXPERIMENTAL TARGET: full-length human RORγt (Homo sapiens (Human))
METHOD DESCRIPTION: RORγt (full-length human) reporter assay, conditions A or B
ASSAY SETUP: HEK293T cells; read-out: RORγt (FL) Reporter Assay A or B, IC50
Grouping by measured IC50 is done with the following cut points: lower level (below 20 nM), middle level (20 nM to below 200 nM), upper level (200 nM or more)

| MOLECULE | LABEL VALUE |
| --- | --- |
| CCc1nc(C(=O)NC[C@H]2CC[C@H](S(C)(=O)=O)CC2)c(C#N)n1-c1ccc(CC(C)(C)C(F)(F)F)cc1OC(F)F | lower level |
| Cc1nc(C(=O)NC[C@]2(O)CC[C@@H](S(C)(=O)=O)CC2)cn1-c1ccc(CC(C)(C)C(F)(F)F)cc1OC(F)F | upper level |
| Cc1nc(C(=O)NC[C@H]2CC[C@H](S(C)(=O)=O)CC2)c(Cl)n1-c1ncc(CC(C)(C)C(F)(F)F)cc1OC(F)F | middle level |
| [2H]C([2H])([2H])Oc1cc(CC(C)(C)C(F)(F)F)ccc1-n1c(CC)nc(C(=O)NC[C@H]2CC[C@H](S(C)(=O)=O)CC2)c1C#N | lower level |
| Cc1nc(C(=O)NC[C@]2(O)CC[C@@H](S(C)(=O)=O)CC2)c(C#N)n1-c1ccc(CC(C)(C)C(F)(F)F)cc1OC(F)F | middle level |
| CCc1nc(C(=O)NC[C@H]2CC[C@H](S(C)(=O)=O)CC2)c(Cl)n1-c1ccc(CC(C(F)(F)F)C(F)(F)F)cc1F | lower level |
| CCc1nc(C(=O)NC[C@]2(O)CC[C@@H](S(C)(=O)=O)CC2)c(C)n1-c1ccc(CC(C(F)(F)F)C(F)(F)F)c(F)c1 | middle level |
| CCc1nc(C(=O)NC[C@H]2CC[C@H](S(=O)(=O)N(C)C)CC2)c(Cl)n1-c1ncc(CC(C)(C)C(F)(F)F)cc1OC(F)F | upper level |
| CCc1nc(C(=O)NC[C@]2(C#N)CC[C@@H](S(C)(=O)=O)CC2)c(C#N)n1-c1ccc(CC(C)(C)C(F)(F)F)cc1OC(F)F | lower level |
| CCc1nc(C(=O)NC[C@H]2CC[C@H](S(C)(=O)=O)C[C@@H]2O)c(Cl)n1-c1ncc(CC(C)(C)C(F)(F)F)cc1OC(F)F (single isomer, unassigned) | middle level |
| CCc1nc(C(=O)NC[C@]2(O)CC[C@@H](S(C)(=O)=O)CC2)c(C#N)n1-c1ccc(CCC(F)(F)F)cc1OC(F)(F)F | upper level |
| COc1cc(N[C@H](C)C(F)(F)F)ccc1-n1c(C(C)(C)C)nc(C(=O)NC[C@H]2CC[C@H](S(C)(=O)=O)CC2)c1Cl | middle level |

* * *

EXPERIMENTAL TARGET: full-length human RORγt (Homo sapiens (Human), UniProt P51449)
Sequence (P51449 other isoform, or with tags, fused parts or gaps): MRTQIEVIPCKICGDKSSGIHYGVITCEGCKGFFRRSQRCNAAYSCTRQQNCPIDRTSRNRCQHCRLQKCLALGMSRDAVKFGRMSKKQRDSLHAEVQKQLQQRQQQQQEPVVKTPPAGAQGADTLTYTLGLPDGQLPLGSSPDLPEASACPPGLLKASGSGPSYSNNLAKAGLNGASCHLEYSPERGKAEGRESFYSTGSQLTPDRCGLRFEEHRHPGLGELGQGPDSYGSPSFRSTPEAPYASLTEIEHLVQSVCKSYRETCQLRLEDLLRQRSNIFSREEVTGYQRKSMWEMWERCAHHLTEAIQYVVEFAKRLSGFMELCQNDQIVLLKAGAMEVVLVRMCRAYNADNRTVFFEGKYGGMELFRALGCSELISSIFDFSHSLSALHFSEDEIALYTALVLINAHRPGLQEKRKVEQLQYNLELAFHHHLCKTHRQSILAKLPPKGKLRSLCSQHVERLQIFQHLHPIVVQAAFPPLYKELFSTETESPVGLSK
METHOD DESCRIPTION: RORγt (full-length human) reporter assay, conditions A or B
ASSAY SETUP: HEK293T cells; read-out: RORγt (FL) Reporter Assay A or B, IC50

| COMPOUND | IC50 (nM) |
| --- | --- |
| CCc1nc(C(=O)NC[C@H]2CC[C@H](S(C)(=O)=O)CC2)c(Cl)n1-c1ncc(C[C@@H](C)C(F)(F)F)cc1OC(F)F (single isomer, unassigned) | 96 |
| [2H]C([2H])([2H])Oc1cc(CC(C)(C)C(F)(F)F)ccc1-n1c(CC)nc(C(=O)NC[C@]2(O)CC[C@@H](S(C)(=O)=O)CC2)c1C#N | 33 |
| CCc1nc(C(=O)NC[C@H]2CC[C@H](S(C)(=O)=O)CC2)c(C)n1-c1ncc(C[C@H](C)C(F)(F)F)cc1OC(F)F (single isomer, unassigned) | 110 |
| CCc1nc(C(=O)NC[C@]2(O)CC[C@@H](S(C)(=O)=O)CC2)cn1-c1ccc(C[C@@H](C)C(F)(F)F)cc1OC (single isomer, unassigned) | 400 |
| CCc1nc(C(=O)NC[C@H]2CC[C@H](S(C)(=O)=O)CC2)c(C#N)n1-c1ccc(CCC(F)(F)F)cc1OC(F)F | 54 |
| CCc1nc(C(=O)NC[C@H]2CC[C@H](S(C)(=O)=O)CC2)c(Cl)n1-c1ncc(CC(C)(C)C(F)(F)F)cc1OC(F)F | 12 |
| CCc1nc(C(=O)NC[C@H]2CC[C@H](S(C)(=O)=O)CC2)c(Cl)n1-c1ccc(CC(C)C(F)(F)F)cc1OC (single isomer, unassigned) [Example 5] | 260 |
| CCc1nc(C(=O)NC[C@H]2CC[C@H](S(C)(=O)=O)CC2)c(C)n1-c1ncc(CCCC(F)(F)F)cc1OC(F)F | 140 |

* * *

pKd: −log10 of the molar value.
As an illustration, consider measured pKd for molecules on human RORγt ligand binding domain (RORγt LBD) (Homo sapiens (Human), UniProt P51449).
Sequence (P51449 other isoform, or with tags, fused parts or gaps): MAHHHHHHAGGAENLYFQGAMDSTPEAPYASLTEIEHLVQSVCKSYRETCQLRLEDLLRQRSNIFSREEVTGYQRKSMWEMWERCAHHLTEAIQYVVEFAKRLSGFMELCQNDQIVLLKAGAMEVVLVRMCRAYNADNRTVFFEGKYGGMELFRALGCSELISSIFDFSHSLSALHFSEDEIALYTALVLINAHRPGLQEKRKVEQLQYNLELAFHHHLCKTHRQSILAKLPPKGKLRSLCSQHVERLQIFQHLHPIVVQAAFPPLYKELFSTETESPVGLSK
MEASUREMENT NAME: pKd

| MOLECULE | MEASUREMENT NAME | VALUE MEASURED |
| --- | --- | --- |
| C#Cc1c(C(=O)NC[C@]2(O)CC[C@@H](S(C)(=O)=O)CC2)nc(CC)n1-c1ccc(CC(C)(C)C(F)(F)F)cc1OC(F)F [Example 40] | pKd | 9.14 |
| CCc1nc(C(=O)NC[C@H]2CC[C@H](S(C)(=O)=O)CC2)c(Cl)n1-c1ccc(CC(C)C(F)(F)F)cc1OC (single isomer, unassigned) [Example 6] | pKd | 9.77 |
| CCc1nc(C(=O)NC[C@H]2CC[C@H](S(C)(=O)=O)C[C@@H]2O)c(Cl)n1-c1ncc(CC(C)(C)C(F)(F)F)cc1OC(F)F (single isomer, unassigned) [Example 58] | pKd | 7.92 |
| CCc1nc(C(=O)NC[C@]2(C#N)CC[C@@H](S(C)(=O)=O)CC2)c(C#N)n1-c1ccc(CC(C)(C)C(F)(F)F)cc1OC(F)F [Example 37] | pKd | 9.06 |

* * *

For reference, pKd measured on human RORγt ligand binding domain (RORγt LBD) (Homo sapiens (Human), UniProt P51449):
pKd: −log10 of the molar value.

| COMPOUND | EXPERIMENTAL TARGET | pKd |
| --- | --- | --- |
| CCc1nc(C(=O)NC[C@H]2CC[C@H](S(=O)(=O)N(C)C)CC2)c(Cl)n1-c1ncc(CC(C)(C)C(F)(F)F)cc1OC(F)F [Example 70] | human RORγt ligand binding domain (RORγt LBD) (Homo sapiens (Human), UniProt P51449) | 6.49 |
| CCc1nc(C(=O)NC[C@]2(O)CC[C@@H](S(C)(=O)=O)CC2)c(Cl)n1-c1ncc(CC(C)(C)C(F)(F)F)cc1OC(F)F [Example 46] | human RORγt ligand binding domain (RORγt LBD) (Homo sapiens (Human), UniProt P51449) | 8.51 |
| CCc1nc(C(=O)NC[C@H]2CC[C@H](S(C)(=O)=O)CC2)c(C#N)n1-c1ccc(CCC(F)(F)F)cc1OC [Example 21] | human RORγt ligand binding domain (RORγt LBD) (Homo sapiens (Human), UniProt P51449) | 7.85 |

* * *

EXPERIMENTAL TARGET: human RORγt ligand binding domain (RORγt LBD) (Homo sapiens (Human))
pKd: −log10 of the molar value.
Below: a set of entries, each annotated with reported pKd.

| MOLECULE | pKd |
| --- | --- |
| CCc1nc(C(=O)NC[C@H]2CC[C@H](S(N)(=O)=O)CC2)c(Cl)n1-c1ncc(CC(C)(C)C(F)(F)F)cc1OC(F)F [Example 69] | 8.14 |
| CCc1nc(C(=O)NC[C@H]2CC[C@H](S(C)(=O)=O)CC2)c(Cl)n1-c1ncc(CC(C(F)(F)F)C(F)(F)F)cc1OC(F)F [Example 63] | 8.14 |
| COc1cc(CC(C)(C)C(F)(F)F)ccc1-n1cc(C(=O)NC[C@]2(O)CC[C@@H](S(C)(=O)=O)CC2)nc1C [Example 130] | 7.19 |
